- system.name: Prostaglandin G/H synthase 1 (Ovis aries)
- Sequence (whole entry): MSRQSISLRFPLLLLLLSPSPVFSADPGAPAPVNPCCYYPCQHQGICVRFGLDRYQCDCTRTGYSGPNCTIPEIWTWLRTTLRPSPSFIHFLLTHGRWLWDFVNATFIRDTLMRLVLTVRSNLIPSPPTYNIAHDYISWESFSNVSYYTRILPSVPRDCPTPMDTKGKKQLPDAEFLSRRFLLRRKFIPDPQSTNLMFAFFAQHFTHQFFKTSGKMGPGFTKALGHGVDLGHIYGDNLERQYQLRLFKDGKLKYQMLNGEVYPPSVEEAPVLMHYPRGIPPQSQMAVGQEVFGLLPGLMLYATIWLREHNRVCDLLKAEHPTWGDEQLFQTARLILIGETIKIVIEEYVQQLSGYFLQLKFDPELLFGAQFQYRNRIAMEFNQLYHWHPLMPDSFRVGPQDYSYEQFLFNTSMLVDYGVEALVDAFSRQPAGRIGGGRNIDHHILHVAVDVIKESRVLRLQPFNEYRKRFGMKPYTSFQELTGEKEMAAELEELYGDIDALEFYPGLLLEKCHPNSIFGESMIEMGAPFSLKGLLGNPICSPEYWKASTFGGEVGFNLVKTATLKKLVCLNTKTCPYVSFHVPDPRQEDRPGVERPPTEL
- assay.remarks: Inactivation of holo-COX1 in sheep seminal vesicle assessed as drug oxidization at 2.5 to 4 nmol by RP-HPLC in presence of hydrogen peroxide
Quick list: Activity per entry.

{"columns": ["compound", "Activity"],
 "data": [
  ["Oc1cc(O)c2c(c1)O[C@H](c1ccc(O)c(O)c1)[C@@H](O)C2", "7%"],
  ["Oc1cccc(O)c1", "5%"],
  ["Oc1cc(O)c2c(c1)O[C@H](c1ccc(O)c(O)c1)[C@H](O)C2 [(-)-EPICATECHIN]", "5%"],
  ["Oc1cc(O)c2c(c1)O[C@@H](c1ccc(O)c(O)c1)[C@H](O)C2 [(-)-CATECHIN]", "8%"],
  ["Oc1cc(O)c2c(c1)O[C@@H](c1ccc(O)c(O)c1)[C@@H](O)C2 [(+)-EPICATECHIN]", "5%"]
]}

====

- system.name: Prostaglandin G/H synthase 1 (Ovis aries)
- Sequence (P05979 whole entry): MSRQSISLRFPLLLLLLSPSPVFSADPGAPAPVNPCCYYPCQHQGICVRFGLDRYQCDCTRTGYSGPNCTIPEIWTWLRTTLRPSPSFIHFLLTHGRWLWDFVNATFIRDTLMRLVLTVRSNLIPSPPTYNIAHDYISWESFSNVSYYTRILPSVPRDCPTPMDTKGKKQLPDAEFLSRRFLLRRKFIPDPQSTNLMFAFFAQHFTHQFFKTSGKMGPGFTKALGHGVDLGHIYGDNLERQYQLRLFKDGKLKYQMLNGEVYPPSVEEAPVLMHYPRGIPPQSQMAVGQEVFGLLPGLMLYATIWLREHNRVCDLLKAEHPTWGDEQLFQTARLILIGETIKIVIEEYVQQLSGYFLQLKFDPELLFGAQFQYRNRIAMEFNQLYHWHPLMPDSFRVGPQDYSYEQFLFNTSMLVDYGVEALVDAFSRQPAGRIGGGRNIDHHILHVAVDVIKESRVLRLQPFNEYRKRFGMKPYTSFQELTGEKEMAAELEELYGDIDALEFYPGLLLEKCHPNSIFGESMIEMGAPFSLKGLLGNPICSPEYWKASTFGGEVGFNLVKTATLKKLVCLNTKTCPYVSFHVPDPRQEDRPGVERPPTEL
pKd: −log10 of the molar value.
Quick list: pKd per entry.

{"columns": ["compound", "pKd"],
 "data": [
  ["Oc1cc(O)c2c(c1)O[C@H](c1ccc(O)c(O)c1)[C@H](O)C2 [(-)-EPICATECHIN]", 4.59],
  ["Oc1cc(O)c2c(c1)O[C@@H](c1ccc(O)c(O)c1)[C@@H](O)C2 [(+)-EPICATECHIN]", 4.60],
  ["Oc1ccc(/C=C/c2cc(O)cc(O)c2)cc1 [RESVERATROL]", 4.93],
  ["Oc1cc(O)c2c(c1)O[C@@H](c1ccc(O)c(O)c1)[C@H](O)C2 [(-)-CATECHIN]", 4.31],
  ["Oc1cc(O)c2c(c1)O[C@H](c1ccc(O)c(O)c1)[C@@H](O)C2 [CIANIDANOL]", 4.39]
]}
